# assayComment: wn = mass fraction of the nth substance listed
# particulars: 298.15 K; 101 kPa; Liquid; Alternating current cell with electrodes; w2 = 0.2
Please go through the items and note down their electrical conductivity.
Give just the numeric value; S/m need not be written.

Prompt: What does the record list as electrical conductivity for C1CC[NH2+]C1.CCCCCCC(=O)[O-] [pyrrolidinium heptanoate] + O ?
Response: 1.41

Prompt: What do you get for C1CC[NH2+]C1.CCCCCC(=O)[O-] [pyrrolidinium hexanoate] + O ?
Response: 2.01

Prompt: What do you get for C1CC[NH2+]C1.CCCCCCCCC(=O)[O-] [pyrrolidinium nonanoate] + O ?
Response: 0.392

Prompt: What do you get for O=C[O-].c1ccc2[nH+]cccc2c1 [quinolinium formate] + O ?
Response: 1.59
